Reported concentration at 1 h values for a set of compounds
Assay: Drug level in rat brain at 1 mg/kg, iv after 1 hr
Assay type: ADME, organism-based
Design: dose 1 mg/kg, route intravenous
Details: read-out: Drug uptake
Just the number please, in nM, no unit attached.

Would you please look over these solved cases?
{"columns": ["Smiles String", "Units Symbol", "Reported"],
 "data": [
  ["CCC(C)(C)Cc1c[nH]c(CCc2ccc(N3CCCC[C@@H]3C(=O)O)cc2)n1", "nM", 10],
  ["CCC(C)(C)Cc1cnc(CCc2ccc3c(c2)CNC(=O)c2ccccc2-3)[nH]1", "nM", 20],
  ["CCC(C)(C)Cc1c[nH]c(CCc2ccc(-c3ccccc3OCc3nc(N)n[nH]3)cc2)n1", "nM", 10]
]}

// switching to the query compound
Task item: Find the recorded concentration at 1 h belonging to CCC(C)(C)Cc1c[nH]c(CCc2ccc(-c3ccccc3OCc3nc(=S)[nH][nH]3)cc2)n1 and report it.
Reply: 30

* * *

Assay: Total plasma concentration in rat at 2 mg/kg, iv after 1 hr
Type: ADME, organism-based
Parameters: dose 2 mg/kg, route intravenous
Measurement Type: concentration at 1 h (nM)
Numeric only. Scale: nM

Task item: Consider the compound CCC(C)(C)Cc1c[nH]c(CCc2ccc(-c3ccccc3OCc3nnn[nH]3)cc2)n1 and give its measured concentration at 1 h.
Reply: 1250

* * *

Target: UniProt O54798
Sequence (O54798 whole entry): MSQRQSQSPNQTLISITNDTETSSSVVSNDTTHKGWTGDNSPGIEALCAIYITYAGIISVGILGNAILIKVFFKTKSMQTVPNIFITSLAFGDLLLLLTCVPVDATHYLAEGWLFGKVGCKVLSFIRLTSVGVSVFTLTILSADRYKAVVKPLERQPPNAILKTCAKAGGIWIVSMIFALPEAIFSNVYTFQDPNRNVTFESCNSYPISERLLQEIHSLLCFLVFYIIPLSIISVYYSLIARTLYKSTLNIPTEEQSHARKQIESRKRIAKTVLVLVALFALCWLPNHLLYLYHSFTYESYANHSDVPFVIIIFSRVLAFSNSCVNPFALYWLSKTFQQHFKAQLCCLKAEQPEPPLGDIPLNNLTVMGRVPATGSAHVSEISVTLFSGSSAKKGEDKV
Test: Agonist activity at mouse BRS3 relative to [D-Tyr6,b-Ala11,Phe13,Nle14]-Bombesin
Assay type: functional
# reported Activity; entries follow
Give a bare numeral; the unit % is implied.

Record excerpt, results attached:
{"columns": ["Smiles String", "Reported"],
 "data": [
  ["CCC(C)(C)Cc1c[nH]c(CCc2ccc(N3CCCC[C@@H]3C(=O)O)cc2)n1", 111],
  ["CCC(C)(C)Cc1c[nH]c(CCc2ccc(-c3ccccc3OCc3nc(C(F)(F)F)n[nH]3)cc2)n1", 122],
  ["CCC(C)(C)Cc1c[nH]c(CCc2ccc(-c3ccccc3OCc3nc(N)n[nH]3)cc2)n1", 115],
  ["CCC(C)(C)Cc1c[nH]c(CCc2ccc(N3CCCC[C@@H]3c3ncn[nH]3)cc2)n1", 117],
  ["CCC(C)(C)Cc1c[nH]c(CCc2ccc3c(c2)CNC(=O)c2ccccc2-3)n1", 118]
]}

Task item: Query for UniProt O54798: what Activity does the record show for CCC(C)(C)Cc1c[nH]c(CCc2ccc(N3CCCc4cn[nH]c43)cc2)n1 ?
Reply: 120

Task item: What Activity appears in the records for this molecule with UniProt O54798? CCC(C)(C)Cc1c[nH]c(CCc2ccc(N3CCCC[C@@H]3c3nnn[nH]3)cc2)n1
Reply: 119

Task item: Can you look up Activity on UniProt O54798 for CCC(C)(C)Cc1c[nH]c(CCc2ccc(-c3ccccc3O)cc2)n1 ?
Reply: 113

Task item: Short answer please: Activity, UniProt O54798, entry CCC(C)(C)Cc1c[nH]c(CCc2ccc(-c3ccccc3OCc3nnn[nH]3)cc2)n1
Reply: 109

* * *

Test: Ratio of drug level in brain to plasma in rat at 2 mg/kg, iv after 1 hr
Type: ADME, organism-based
Design: dose 2 mg/kg, route intravenous
Measurement Type: Kp at 1 h
Number only, please.

Task item: I am curious: what Kp at 1 h value has been reported for CCC(C)(C)Cc1c[nH]c(CCc2ccc(-c3ccccc3OCc3nnn[nH]3)cc2)n1 ?
Reply: 0.01
